Recorded values, source patent US12492173B2.

Listed here are compounds together with their documented herbicidal action SETVI.
# Test system: Setaria viridis
# Assay summary: Post-emergence herbicidal action, SETVI
# Assay type: in vivo
# Design: key: % herbicidal action vs untreated; 100 = plants died, 0 = like control
# Details: Dosage 80 g/ha
# Description: [table] 2. […] After the test plants have been left to stand in the greenhouse under optimal growth conditions for about 3 weeks, the action of the preparations is assessed visually in comparison to untreated controls (herbicidal action in percent (%): 100% activity=the plants have died, 0% activity=like control plants). […]

compound=CCCn1nnnc1NC(=O)c1ccc(C(F)(F)F)c(CS(=O)(=O)CC)c1C result=90
compound=Cn1nnnc1NC(=O)c1ccc(C(F)(F)F)c(CS(C)(=O)=O)c1C(F)(F)C(F)(F)F result=80
compound=CCn1nnnc1NC(=O)c1ccc(S(C)(=O)=O)c(CSC)c1C result=100
compound=CCCn1nnnc1NC(=O)c1ccc(C(F)F)c(CSC)c1Cl result=100
compound=Cn1nnnc1NC(=O)c1ccc(I)c(CS(C)(=O)=O)c1Cl result=100
compound=CCCn1nnnc1NC(=O)c1ccc(C(F)(F)F)c(CS(=O)(=O)CC)c1Br result=90
compound=CCCn1nnnc1NC(=O)c1ccc(C(F)F)c(CSC)c1C result=90
compound=CCCn1nnnc1NC(=O)c1ccc(C(F)(F)F)c(CS(=O)(=O)CC)c1Cl result=90

Specify reported herbicidal action SETVI for the compound shown: `CCS(=O)(=O)Cc1c(C(F)(F)F)ccc(C(=O)Nc2nnnn2C)c1Cl`
90

Specify reported herbicidal action SETVI for the compound shown: `CCSCc1c(C(F)F)ccc(C(=O)Nc2nnnn2C)c1SCC`
100

Specify reported herbicidal action SETVI for the compound shown: CCn1nnnc1NC(=O)c1ccc(C(F)(F)F)c(C[S+]([O-])CC2CC2)c1Cl (stereo not drawn)
100

Specify reported herbicidal action SETVI for the compound shown: `CCn1nnnc1NC(=O)c1ccc(C(F)(F)F)c(CS(C)(=O)=O)c1Br`
90

Specify reported herbicidal action SETVI for the compound shown: `Cn1nnnc1NC(=O)c1ccc(Cl)c(CS(C)(=O)=O)c1Cl`
100

Specify reported herbicidal action SETVI for the compound shown: `CCCn1nnnc1NC(=O)c1ccc(C(F)(F)F)c(CSC)c1Cl`
90

Specify reported herbicidal action SETVI for the compound shown: CCn1nnnc1NC(=O)c1ccc(I)c(C[S+](C)[O-])c1Cl (stereo not drawn)
90

Specify reported herbicidal action SETVI for the compound shown: `CSCc1c(C(F)(F)F)ccc(C(=O)Nc2nnnn2C)c1SC`
100

Specify reported herbicidal action SETVI for the compound shown: `CCn1nnnc1NC(=O)c1ccc(S(C)(=O)=O)c(CS(C)(=O)=O)c1C`
100

Specify reported herbicidal action SETVI for the compound shown: `CCCn1nnnc1NC(=O)c1ccc(C(F)F)c(CS(C)(=O)=O)c1Cl`
80

---

# System: Veronica persica
# Assay summary: Post-emergence herbicidal action, VERPE
# Format: in vivo
# Design: key: % herbicidal action vs untreated; 100 = plants died, 0 = like control
# Details: comparative experiment, post-emergence, 20 g of a.i./ha
Listed here are compounds together with their documented Herbicidal action against VERPE.
# print the numeric value only

Examples with their reported Herbicidal action against VERPE follow.
compound="CC[S+]([O-])Cc1c(C(F)(F)F)ccc(C(=O)Nc2nnnn2C)c1Br (racemic) [Example 1-384]" target_of_assay="Veronica persica" readout_type="Herbicidal action against VERPE" result=100
compound="CCSc1c(C(F)(F)F)ccc(C(=O)Nc2nnnn2C)c1Br [Example V-11, reference compound]" target_of_assay="Veronica persica" readout_type="Herbicidal action against VERPE" result=40
compound="CCSCc1c(C(F)(F)F)ccc(C(=O)Nc2nnnn2C)c1Br [Example 1-383]" target_of_assay="Veronica persica" readout_type="Herbicidal action against VERPE" result=100
compound="CC[S+]([O-])c1c(C(F)(F)F)ccc(C(=O)Nc2nnnn2C)c1Br (stereo not drawn) [Example V-12, reference compound]" target_of_assay="Veronica persica" readout_type="Herbicidal action against VERPE" result=0
compound="CCS(=O)(=O)c1c(C(F)(F)F)ccc(C(=O)Nc2nnnn2C)c1Br [Example V-13, reference compound]" target_of_assay="Veronica persica" readout_type="Herbicidal action against VERPE" result=0

Query compound follows.
Specify reported Herbicidal action against VERPE for the compound shown: CCS(=O)(=O)Cc1c(C(F)(F)F)ccc(C(=O)Nc2nnnn2C)c1Br [Example 1-385]
100
